Every entry's value here was drawn from patent US20140348834A1.

tested target: T1, rat IL-17A (rat, UniProt Q61453 18-150, limits assumed)
T1 sequence (looked up): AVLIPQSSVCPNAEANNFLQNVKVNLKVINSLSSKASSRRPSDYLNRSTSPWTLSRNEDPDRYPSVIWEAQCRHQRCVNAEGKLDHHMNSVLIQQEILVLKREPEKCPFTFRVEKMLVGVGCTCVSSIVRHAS
assay explanation: cell-based or functional assay
Below, each entry is listed alongside its reported Potency (pM), IL-17 and TNF-induced IL-6 secretion from NIH3T3 cells.
Expressed in pM, but write only the number.

Check out these entries, answers already filled in.
binder	val
IL17-B6-17 (antibody, V domains shown, also called pJP249 B6.1 #17VH / pJP252 B6.1 #17Vk) VH: EVQLVQSGAEVKKPGSSVKVSCKASGGSFGGYGIGWVRQAPGQGLEWMGGITPFFGFADYAQKFQGRVTITADESTTTAYMELSGLTSDDTAVYYCARDPNEFWNGYYSTHDFDSWGQGTTVTVSS VL: EIVLTQSPDFQSVTPKEKVTITCRASQDIGSELHWYQQKPDQPPKLLIKYASHSTSGVPSRFSGSGSGTDFTLTINGLEAEDAGTYYCHQTDSLPYTFGPGTKVDIK	111
IL17-B6-5 (antibody, V domains shown, also called pJP243 B6.1 #5VH / pJP244 B6.1 #5VK) VH: EVQLVQSGAEVKKPGESVKISCKASGGSFRSYGISWVRQAPGQGLEWMGGITHFFGITDYAQKFQGRVTITADESTTTAYMELSGLTSDDTAVYYCAREPNDFWNGYYDTHDFDSWGQGTTVTVSS VL: EIVLTQSPDFQSVTPKEKVTITCRASQNIGSELHWYQQKPDQSPKLLIKYASHSISGVPSRFSGSGSGTDFTLTINGLEAEDAATYYCHQSDTLPHTFGQGTKVDIK	73

Alright, here's another binder for you.
(Q) If you can, please state the reported Potency (pM), IL-17 and TNF-induced IL-6 secretion from NIH3T3 cells value of IL17-B6-15 (antibody, V domains shown, also called pJP245 B6.1 #15VH / pJP246 B6.1 #15Vk) VH: EVQLVQSGAEVKKPGESLKISCKASGGSFSGYGTSWVRQAPGQGLEWMGGITHFFGAVDYAQKFQGRVTITADESTTTAYMELSGLTSDDTAVYYCARDPNEFWNGYYATHDFDYWGQGTTVTVSS VL: EIVLTQSPDFQSVTPKEKVTITCRASQNIGAELHWYQQKPDQSPKLLIKYASHSISGVPSRFSGSGSGTDFTLTINGLEAEDAGTYYCHQTDRLPYSFGPGTKVDIK .
(A) 17
